target of assay: Pantothenate synthetase (Mycobacterium tuberculosis (strain ATCC 25618 / H37Rv)) (UniProt P9WIL5)
Sequence (P9WIL5 whole entry, looked up): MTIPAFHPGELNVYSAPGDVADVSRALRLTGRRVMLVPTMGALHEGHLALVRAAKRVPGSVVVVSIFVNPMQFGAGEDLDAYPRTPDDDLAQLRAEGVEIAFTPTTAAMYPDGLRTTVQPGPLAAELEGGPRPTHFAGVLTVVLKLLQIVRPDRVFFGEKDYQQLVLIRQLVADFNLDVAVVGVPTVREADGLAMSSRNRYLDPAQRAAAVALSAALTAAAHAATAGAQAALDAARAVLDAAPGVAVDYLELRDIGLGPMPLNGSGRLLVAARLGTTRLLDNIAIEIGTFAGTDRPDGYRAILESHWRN
experiment notes: Coupled enzyme confirmation of inhibitors against recombinant Mtb PanC (AID 375);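 note: 0% = full reaction with vehicle and 100% = no enzyme background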
conditions used: coupled enzyme assay; at 10 µM, stronger effect = higher value
inhibition values by entry

{"molecule": "CCN(CCO)C1CC(=O)N(c2ccccc2C)C1=O (stereo unspecified)", "units label": "%", "inhibition": 0}
{"molecule": "Cc1ccc(C)c(N2CCN(CCCNC(=O)Cn3cc4c(n3)CCC(C)C4)CC2)c1 (stereo unspecified)", "units label": "%", "inhibition": 8}
{"molecule": "Cc1c(C(=O)N2CCN(c3ccccc3)CC2)sc2ncnc(N3CCN(c4ccccc4)CC3)c12", "units label": "%", "inhibition": 0}
{"molecule": "CCCN1CCN(C(=O)Cn2cccc2C(=O)c2ccccc2)CC1", "units label": "%", "inhibition": 0}
{"molecule": "COc1ccccc1NC1=C(C)C(=O)CC1", "units label": "%", "inhibition": 0}
{"molecule": "O=C(CCCCn1c(=O)[nH]c2ccsc2c1=O)NCc1cccnc1", "units label": "%", "inhibition": 5}
{"molecule": "CN(C)c1oc(-c2ccccc2F)nc1C#N", "units label": "%", "inhibition": 1}
{"molecule": "O=C(Cc1ccccc1)Nc1nnc(-c2cccs2)s1", "units label": "%", "inhibition": 0}
{"molecule": "COc1ccc(C/C(N)=N/n2cnnc2)cc1Cl", "units label": "%", "inhibition": 0}
{"molecule": "CS(=O)(=O)NCC(c1cccnc1)N1CCN(c2ccc(F)cc2)CC1 (stereo unspecified)", "units label": "%", "inhibition": 1}
{"molecule": "Nc1nnc(-c2cccc(Cl)c2Cl)c(N)n1", "units label": "%", "inhibition": 2}

----------
experiment notes: Her2 expression decrease, cell viability multiplex – SKBR3 breast tumor cells, AlphaScreen, ATP viability, primary screen (AID 461);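 note: percent of carrier control wells set as 100% viability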
conditions used: SKBR3 Her2 protein level, 18-24 h, measured here: SKBR3 viability, ATP luminescence, at 10 µM
measure: viability (%)

{"compound": "CC1(C)Cc2c(sc3c2C(=O)NC(c2cccnc2)N3)CO1 (configuration not stated)", "units label": "%", "value observed": 113}
{"compound": "O=c1[nH]c(=O)n(-c2ccc(F)cc2)c(O)c1C=Nc1ccccc1N1CCCC1", "units label": "%", "value observed": 97.5}
{"compound": "COCCOC(=O)C1=C(N)Oc2c(c(=O)oc3ccccc23)C1c1ccncc1 (configuration not stated)", "units label": "%", "value observed": 122}
{"compound": "CCOc1c(P(=S)(N(C)C)N(C)C)c(C)nn1-c1ccccc1", "units label": "%", "value observed": 83}
{"compound": "COc1ccc(CC2C(=O)NC(=O)NC2=O)c(OC)c1", "units label": "%", "value observed": 96.5}
{"compound": "CN(C)c1cc(N)c2c(n1)CCC2 (tested in a mixture with another compound)", "units label": "%", "value observed": 113}
{"compound": "CCCCn1c(O)c(C=NC2CCCCC2N)c(=O)[nH]c1=O (configuration not stated)", "units label": "%", "value observed": 128}
{"compound": "Cc1cccc(N2CCc3c2nc2ccccc2c3N)c1", "units label": "%", "value observed": 84.5}
{"compound": "CC(C)=CCSc1nnc([C@@H](N)Cc2c[nH]c3ccccc23)o1", "units label": "%", "value observed": 102}
{"compound": "C=CCn1c(O)c(C(C)=NCCCO)c(=O)[nH]c1=O", "units label": "%", "value observed": 93}
{"compound": "CCc1ccc(OCCCN=C(C)c2c(O)n(C)c(=O)n(C)c2=O)cc1", "units label": "%", "value observed": 92}
{"compound": "CCCCOc1ccc(CN2CCN(CCO)CC2)cc1", "units label": "%", "value observed": 74}
{"compound": "COc1ccc(C(=O)N2CCCC2=O)cc1", "units label": "%", "value observed": 110}
{"compound": "Cc1[nH]c2c(Cl)cccc2c1CCN", "units label": "%", "value observed": 97.5}
{"compound": "Cc1cc(N2C(=O)C3CCCN3C2c2cccc(Cl)c2)no1 (configuration not stated)", "units label": "%", "value observed": 95}
{"compound": "CC1CCC(C(=O)NC(C(=O)N2CCC3(CC2)OCCO3)C(C)C)CC1 (configuration not stated)", "units label": "%", "value observed": 96.5}
{"compound": "O=C1CC(N2CCC(n3c(=O)[nH]c4ccccc43)CC2)C(=O)N1c1ccc(F)cc1 (configuration not stated)", "units label": "%", "value observed": 93.5}
{"compound": "COc1cc(/C=N/n2cnnc2)ccc1OC(=O)N(C)C", "units label": "%", "value observed": 97}
{"compound": "COc1ccc(C2SCC(=O)Nc3c2c(=O)[nH]n3C2CCCCCC2)cc1OC (configuration not stated)", "units label": "%", "value observed": 124}
{"compound": "O=P(OCC(F)(F)C(F)F)(N1CCCCC1)N1CCCCC1", "units label": "%", "value observed": 104}
{"compound": "Clc1ccc(COC(Cn2ccnc2)c2ccc(Cl)cc2Cl)c(Cl)c1 (configuration not stated)", "units label": "%", "value observed": 105}
{"compound": "COc1ccc(CN2CCN(c3ccccc3F)CC2)c(OC)c1", "units label": "%", "value observed": 92}
{"compound": "Cn1c(O)c(C=NCc2ccco2)c(=O)n(C)c1=O", "units label": "%", "value observed": 106}
{"compound": "CCOc1cc2[nH]c(=S)n(CCCC(=O)N3CCC4(CC3)OCCO4)c(=O)c2cc1OCC", "units label": "%", "value observed": 88.5}
{"compound": "CC(=NCCCO)c1c(O)n(Cc2ccccc2)c(=O)[nH]c1=O", "units label": "%", "value observed": 95}
{"compound": "Cc1ccc(O)c(CN2CCN(c3ccccc3)CC2)c1", "units label": "%", "value observed": 94}
{"compound": "CC(=O)C1C(=O)NC23CCCCC2C1c1ccccc1O3 (configuration not stated)", "units label": "%", "value observed": 88}
{"compound": "O=C(c1ccc2nc(-c3ccco3)c(-c3ccco3)nc2c1)N1CCC2(CC1)OCCO2", "units label": "%", "value observed": 93}
{"compound": "CC(C)CC12CN3CCN(CC(C3)/C1=N/O)C2", "units label": "%", "value observed": 107}
{"compound": "N#Cc1ccccc1Cn1cc(C(=O)C2CC2)c2ccccc21", "units label": "%", "value observed": 86}
{"compound": "CCOC(=O)c1cccc([P+](=O)O)c1", "units label": "%", "value observed": 92.5}
{"compound": "CCCCCCOc1ccc(CN2CCN(C)CC2)cc1", "units label": "%", "value observed": 83.5}

----------
target of assay: Pantothenate synthetase (Mycobacterium tuberculosis (strain ATCC 25618 / H37Rv)) (UniProt P9WIL5)
experiment notes: Coupled enzyme confirmation of inhibitors against recombinant Mtb PanC (AID 375);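 note: 0% = full reaction with vehicle and 100% = no enzyme background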
conditions used: coupled enzyme assay; at 10 µM, stronger effect = higher value
measure: inhibition (%)

{"molecule": "Cc1nn(-c2ccccc2)c2sc(C(=O)N3CCOCC3)cc12", "value observed": 0}
{"molecule": "Cc1nnc(SCC(=O)NCc2ccccc2)s1", "value observed": 0}
{"molecule": "N#Cc1c(N)nc(SCc2ccncc2)c(C#N)c1-c1cccs1", "value observed": 11}
{"molecule": "COc1ccc2c(c1)C(C)=CC(C)(C)N2C(=O)C(C)N1C(=O)c2ccccc2C1=O (centres undefined)", "value observed": 4}

----------
experiment notes: MRP1 drug-resistance reversers in H69AR cells – cell-based, doxorubicin co-treatment, pilot screen (AID 601)
conditions used: H69AR cells, CellTiter-Glo, 72 h; compound alone cytotoxicity; at 10 µM
measure: viability (%)

{"compound": "CCC(=NCCCN1CCOCC1)c1c(O)n(Cc2ccccc2)c(=O)[nH]c1=O", "units label": "%", "value observed": 89.2}
{"compound": "Cc1cccc(-n2c(O)c(C=NCCCN3CCOCC3)c(=O)[nH]c2=O)c1C", "units label": "%", "value observed": 105}
{"compound": "Cc1cc(C)c(C(=O)CN2CCOCC2)c(C)c1", "units label": "%", "value observed": 74}
{"compound": "COc1ccc(Cc2nccc3cc(OC)c(OC)cc23)cc1OC", "units label": "%", "value observed": 81.7}
{"compound": "c1ccc2c(c1)OCC(C1=NCCN1)O2 (configuration not stated)", "units label": "%", "value observed": 81.4}
{"compound": "Cc1c2ccncc2c(C)c2c1[nH]c1ccccc12", "units label": "%", "value observed": 1.16}
{"compound": "O=C1CC(N2CCC(n3c(=O)[nH]c4ccccc43)CC2)C(=O)N1c1ccc(F)cc1 (configuration not stated)", "units label": "%", "value observed": 103}
{"compound": "Nc1ccnn1C1CCNCC1", "units label": "%", "value observed": 107}
{"compound": "COc1ccccc1N1CCN(Cc2cccc(OC)c2O)CC1", "units label": "%", "value observed": 91.6}
{"compound": "CCCCN1C(=O)NC(=O)C2(Cc3c(nc4c(C)cccn4c3=O)N3CCc4ccccc4C32)C1=O (configuration not stated)", "units label": "%", "value observed": 55.8}
{"compound": "CN(C)[C@@H]1C(=O)C(C(N)=O)=C(O)[C@@]2(O)C(=O)C3=C(O)c4c(O)ccc(Cl)c4[C@@](C)(O)C3C[C@@H]12 (some centres not stated)", "units label": "%", "value observed": 96.8}
{"compound": "CC(C)(C)P(=O)(c1ccncc1)N1CCCC1 (configuration not stated)", "units label": "%", "value observed": 92.8}
{"compound": "COc1ccc(CCn2c(O)c(C=NCCCN(C)C)c(=O)[nH]c2=O)cc1OC", "units label": "%", "value observed": 98.1}
{"compound": "CN1C(=O)C(Cc2cccc3ccccc23)C(=O)N(C)C1=O", "units label": "%", "value observed": 85.2}
{"compound": "CCCNS(=O)(=O)c1ccc(OCC(=O)N2CCN(Cc3ccccc3)CC2)cc1", "units label": "%", "value observed": 88.6}
{"compound": "CNP1(NC)=NC(C(F)(F)F)=NC(C(F)(F)F)=N1", "units label": "%", "value observed": 98.1}
{"compound": "CCN(CC)CCN=Cc1c(O)n(CCC2=CCCCC2)c(=O)[nH]c1=O", "units label": "%", "value observed": 74.7}
{"compound": "CCCNC(=O)c1c(N)n(Cc2ccc3c(c2)OCO3)c2nc3ccccc3nc12", "units label": "%", "value observed": 43.8}
{"compound": "COc1ccc(CCNC(=O)c2c(N)n(CCN3CCOCC3)c3nc4ccccc4nc23)cc1", "units label": "%", "value observed": 19.3}
{"compound": "CN1CCC(OC(=O)C2c3ccccc3Oc3ccccc32)CC1", "units label": "%", "value observed": 86.4}
{"compound": "CCCC(C)(COC(N)=O)COC(=O)NC(C)C (configuration not stated)", "units label": "%", "value observed": 100}
{"compound": "Cc1ccc(C2SCC(=O)Nc3c2c(=O)[nH]n3C2CCOC(C)(C)C2)cc1 (configuration not stated)", "units label": "%", "value observed": 98.2}
{"compound": "COC1=CC(=O)OC(/C=C/c2ccccc2)C1 (configuration not stated)", "units label": "%", "value observed": 87.6}
{"compound": "COc1ccc(CC2C(=O)NC(=O)NC2=O)c(OC)c1", "units label": "%", "value observed": 106}
{"compound": "O=C1CC[C@@]2(O)[C@H]3Cc4ccc(O)c5c4[C@@]2(CCN3CC2CC2)[C@H]1O5", "units label": "%", "value observed": 99.5}
{"compound": "O=C(c1sc2ccccc2c1Cl)N1CCC2(CC1)OCCO2", "units label": "%", "value observed": 109}
{"compound": "NCCc1ccc(O)cc1", "units label": "%", "value observed": 96.2}
{"compound": "Cc1ccc(O)c(CN2CCN(c3ccccc3)CC2)c1", "units label": "%", "value observed": 85.5}
{"compound": "CCOc1c(P(=S)(N(C)C)N(C)C)c(C)nn1-c1ccccc1", "units label": "%", "value observed": 101}
{"compound": "Cc1cnn(C2CCN(C)CC2)c1N", "units label": "%", "value observed": 104}
{"compound": "Cc1ccc(Cn2c(C)c3cnn(CC(=O)N4CCC5(CC4)OCCO5)c(=O)c3c2C)cc1", "units label": "%", "value observed": 53.8}
{"compound": "Cn1c(O)c(C=NCc2ccco2)c(=O)n(C)c1=O", "units label": "%", "value observed": 95.1}
{"compound": "CCOc1cccc(N2C(=O)CC(=O)NC2=O)c1", "units label": "%", "value observed": 94.5}
{"compound": "O=C1OCCC1NC1=NCCC1 (configuration not stated)", "units label": "%", "value observed": 100}
{"compound": "O=C(CN1C(=O)CN=C(c2ccccc2)c2ccccc21)NCc1ccco1", "units label": "%", "value observed": 80.4}
{"compound": "Cc1[nH]c2c(Cl)cccc2c1CCN", "units label": "%", "value observed": 13.2}
{"compound": "O=c1[nH]c(=O)n(CCc2ccccc2)c(O)c1C=NCCN1CCNCC1", "units label": "%", "value observed": 93}
